Data provenance: ChEMBL document CHEMBL1142374

As an illustration, consider measured pIC50 for compounds on Glycogen synthase kinase-3 beta (Homo sapiens, UniProt P49841).
Sequence (P49841 whole entry): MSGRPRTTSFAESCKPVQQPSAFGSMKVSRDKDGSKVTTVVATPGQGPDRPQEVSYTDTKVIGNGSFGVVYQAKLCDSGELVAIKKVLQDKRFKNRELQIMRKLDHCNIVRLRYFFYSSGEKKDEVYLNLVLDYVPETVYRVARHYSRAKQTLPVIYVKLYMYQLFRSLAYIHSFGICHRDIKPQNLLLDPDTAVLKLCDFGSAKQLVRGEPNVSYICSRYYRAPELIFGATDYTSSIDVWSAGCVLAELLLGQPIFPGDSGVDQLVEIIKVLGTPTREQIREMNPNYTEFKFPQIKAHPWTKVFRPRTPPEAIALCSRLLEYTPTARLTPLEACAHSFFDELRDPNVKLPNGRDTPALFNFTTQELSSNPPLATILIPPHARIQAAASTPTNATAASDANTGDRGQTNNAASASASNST
Numbers only, as −log10 of the molar value.

I would be grateful if you could provide pIC50 for each of the following entries.
1. Nc1ncnc2oc(-c3cccnc3)c(-c3ccc(NC(=O)c4cccc(F)c4)cc3)c12
2. CS(=O)(=O)Nc1ccc(-c2c(-c3cccnc3)oc3ncnc(N)c23)cc1

Resp:
1: 5.80; 2: 6.32

---

biological target: Glycogen synthase kinase-3 beta (Rattus norvegicus, UniProt P18266); experiment: Inhibition of rat GSK3-beta in L6 cells assessed as accumulation of glycogen
Sequence (P18266 whole entry): as the sequence (P49841 whole entry) above, with V240M, T390P, T392A, A400T, T402A counted along it
Observable: EC50 (µM)
Give bare numbers, in µM.

Req: Find the recorded EC50 belonging to Nc1ncnc2oc(-c3cccnc3)c(-c3ccc(NS(=O)(=O)c4ccccc4)cc3)c12 and report it.
Resp: 3.2
